Test system: DU-145 prostate
measurementNotes: NCI tumour cell line growth inhibition, 48 h
Can you tell me TGI for the items I'm about to list?

IN: Provide measured TGI value, entry: CCOP(=O)(OCC)/C(C#N)=C/c1cnc[nH]1
OUT: > 100 µM

IN: Find the measured TGI of CN1CCC2(CC1)C(=NC1CCCCC1)NC(=S)N2c1ccccc1 and report it.
OUT: > 100 µM

IN: Dear colleague, please send me the reported TGI for CC(C)Cc1cc2c(cc1O)CCC1C2CC[C@@]2(C)C1CC[C@@H]2O (stereo not given in full) when you can.
OUT: 23.1 µM

IN: Look up TGI of COc1ccc(C2C=C(c3ccc4c(c3)OCO4)Oc3c2c(=O)oc2ccccc32)cc1OC (stereo not given) and report it.
OUT: > 100 µM

IN: Answer with the recorded TGI of COc1ccc(C2=NN(C(=O)c3cc(OC)c(OC)c(OC)c3)C(c3ccc(N(C)C)cc3)C2)cc1 (stereo not given) only.
OUT: > 23.7 µM
